procedure details: growth of efflux-deficient E. coli DRC39 – strain DRC39, OD650, 24 h, E. coli filamentation inducers, primary screen (AID 1178);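 note: growth measured as culture turbidity by optical density at 650 nm; test concentration not given here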
study conditions: E. coli DRC39 acrAB, higher = more signal, called active from +8 up or from −8 down
attribute measured: z-score

INSERT INTO assay_data (compound, assay_value) VALUES
  ('C=CCC(OC(C)=O)[C@@H]1[C@@H](N(Cc2ccc(-c3cccc(C(F)(F)F)c3)o2)C(=O)Cc2ccc(OC)cc2)c2cc(OCCCO)ccc2N1C(=O)c1ccc(-c2ccccc2)cc1 (stereo not given in full)', -0.165),
  ('COc1ccc(C(=O)Nc2ccc(CN3C(=O)[C@]4(O[C@H](CC(=O)N5Cc6ccccc6C[C@H]5CO)[C@@H]([Si](C)(C)c5ccc(OC)cc5)[C@@H]4C)c4ccccc43)cc2)cc1', -1.14),
  ('COc1ccc([Si](C)(C)[C@@H]2[C@@H](CCO)O[C@]3(C(=O)N(Cc4cccc(NC(=O)[C@H](C)O)c4)c4ccccc43)[C@H]2C)cc1', 0.0065),
  ('CC(C)N1C(=O)C[C@@](C(=O)O)(c2ccc([N+](=O)[O-])cc2)[C@H]1c1ccc(CO)cc1', 0.732),
  ('CCCCCCCCCCC(O)C1C=CC2C(=O)N(c3ccccc3)C(=O)C2N1Nc1ccc(C#N)cc1 (stereo not given)', -0.275),
  ('CC(C)(C)OC(=O)COc1cccc(C(=O)CCN2CCOCC2)c1', 0.215),
  ('O=C1OCCC=C[C@H]2OC34C=CCN(c5ccc6ccccc6c5)C(=O)[C@H]3N(CCCO)C(=O)[C@@H]4C12 (stereo not given in full)', -0.127),
  ('O=C(O)[C@@H]1[C@@H]2C(=O)N(c3ccccc3)C(=O)[C@@H]2C[C@@H]1Sc1ccccc1', -0.719),
  ('COCCOC(=O)N1C(=O)[C@@]2(c3cc(C#CC4(O)CCCCCC4)ccc31)[C@H](C(=O)N1CCc3cc(OC)c(OC)cc3C1)[C@H]1C(=O)O[C@H](c3ccccc3)[C@H](c3ccccc3)N1[C@@H]2c1ccc(OCCO)cc1', -0.201),
  ('CCCN1C(=O)[C@@]2(Cc3ccccc31)N=C(c1ccc(OCCCO)cc1)O[C@H]2c1ccccc1', -0.305),
  ('CCCC=C(CCC)[C@@H](NC(=O)c1cccs1)c1ccc(C(=O)OC)cc1', 0.204),
  ('CC[C@@H]1C=C(C(=O)O)[C@H](c2ccccc2)N1S(=O)(=O)c1ccc(C)cc1', -0.666),
  ('CCCCCCc1nc(Cc2cc(OC)c(OC)c(OC)c2)cc2c1[Si](C(C)C)(C(C)C)OC2', -0.284),
  ('COC(=O)[C@@]1(Cc2ccc(OC)cc2)[C@H]2c3cc(C(=O)N4CCCC4)n(CCc4c[nH]c5ccc(OC)cc45)c3C[C@H]2CN1C(=O)c1ccccc1', -0.456),
  ('CC(C)C(O)C1C=CC2C(=O)N(c3ccccc3)C(=O)C2N1Nc1ccccc1 (stereo not given)', 0.562);
